method description: NCI Yeast Anticancer Drug Screen. Data for the bub3 strain (AID 167)
experimental setup: S. cerevisiae bub3 mutant strain, at 50.0 µM, active compounds read high
About 79,000 compounds went through this panel and 15% of them were active in at least one assay; those are over-represented in the sample as a whole.
Quick list: growth inhibition per entry.
property: growth inhibition (%)

N#CC1Sc2ccccc2N1C(=O)OCc1ccccc1 (stereo not given) = 93.5
C=C1CC2(CC(c3ccccc3OC)OC(c3ccccc3OC)C2)OC1=O (stereo not given) = 60.5
CCSSc1ccccc1C(=O)NC(CC)CO (stereo not given) = 65.5
Cc1cc(/C=C/C2CCC3CC(C)CCC3N2CCO)c(C)n1-c1ccccc1 (stereo not given) = 98
COc1cccc2c1C(=O)c1c(O)c3c(c(O)c1C2=O)C[C@@](O)(C(C)=O)C[C@@H]3OC1CC(O)C(O)C(C)O1 (stereo not given in full) = 85.3
COc1ccc(C2SC(N)=Nc3c2c(C)nn3C(=O)c2ccc(Cl)cc2)cc1OC (stereo not given) = 16.1
COc1c(CBr)c(CBr)c(OC)c2c1C(=O)c1ccccc1C2=O = 64.2
O=[N+]([O-])c1ccc(OCCN(Cc2ccccc2)Cc2ccccc2)c([N+](=O)[O-])c1 = 71.5
NC(=O)NC(=O)C(Cc1ccc(Cl)cc1)c1ccccc1 (stereo not given) = -52.6
c1ccc(N=c2cnc3c(ccc4ccccc43)o2)cc1 = 79.2
CC1=C(C(=O)Nc2c(C)cccc2C)C(c2ccc3c(c2)OCO3)C(C(=O)Nc2c(C)cccc2C)=C(C)N1 = 87.5
c1ccc2c(c1)CNc1ccccc1-2 = 85.5
O=C(O)COc1ccc(OCC(=O)O)cc1 = -4.55
CCCCCCCCCCCCCC1=NCC(c2ccc3ccccc3c2)O1 (stereo not given) = -4.7
CC(=O)OCC(=O)[C@H]1CC[C@H]2[C@@H]3CC=C4C[C@@H](O)CC[C@]4(C)[C@H]3CC[C@]12C = -17.4
O=P(C(=S)NC1CC2C=CC1C2)(c1ccccc1)c1ccccc1 (stereo not given) = 34.1
CC(NC(=O)C(N)Cc1ccccc1)C(=O)NC1C(CO)OC(n2cnc3c(N)ncnc32)C1O (stereo not given) = 96.5
CC(=O)c1ccc2ccc3ccc(O)cc3c2c1 = 90.2
Cc1cc2c(c(Br)c1O)Oc1c(cc(C)c(O)c1Br)C21OC(=O)c2ccccc21 = 91
CCC[CH2][Sn]1([CH2]CCC)[O]N=C(c2ccccc2)C(c2ccccc2)[O]1 (stereo not given) = 78.8
COc1ccc(COc2ccc(C(=O)CCN3CCOCC3)cc2)cc1 = 97.4
O/N=C(\CC(O)(C(F)(F)F)C(F)(F)F)c1cccc(Cl)c1 = 90.5
O=C1/C(=C\c2ccc([N+](=O)[O-])cc2)Sc2scc(-c3ccc(O)c(O)c3)[n+]21 = 92.5
OC1CN(Cc2ccccc2)C[C@@H]1O (stereo not given in full) = -0.5
Fc1ccc2nc3ccccc3nc2c1 = 42.5
Cn1c(N)nc(=O)c2[nH]cnc21 = -9.25
CN(C)C(=Nc1nc(=[N+](C)C)ss1)N(C)C = 49.4
CCOC(=O)c1ccc(NCc2ccc3ccccc3n2)cc1 = -11.1
O=[N+]([O-])c1ccc(N/N=C/CC(O)(C(F)(F)F)C(F)(F)F)c([N+](=O)[O-])c1 = 86.4
COc1ccc(NC(=O)C(=O)NO)c(OC)c1 = 91.2
CCCCCCCCCCCCN1C(=O)[N+](C)(C)N=C1[O-] = 98.9
Clc1nc2nc(Cl)c(Cl)n2nc1Cl = 99.3
N=C1N(c2ccccc2)C(=S)C(=Nc2ccccc2)N1c1ccccc1 = 84.2
CC(C)OP(=O)(OC(C)C)C(=Nc1ccccc1)NNc1ccc([N+](=O)[O-])cc1 = 43.6
COc1cc2c3c(c1)SCCC(=O)N3CCN2 = 73.3
CC1(O)Cc2c(O)c3c(c(O)c2CC1O)C(=O)C=CC3=O (stereo not given) = 24.2
CCCN(CCC)C(=S)N/N=C/c1ccccn1 = 92.5
Cc1c(-c2ccccc2)ccnc1/C=N/NC(N)=S = 80.7
Fc1cccc(NC(=S)SCc2ccc(Cl)c(Cl)c2)c1 = 98
CCCCCCCCCCCCCCCC(=O)NCC[N+](C)(C)C = 99.5
O=C1C=CC(=O)C(C2OC(=O)C(Br)=C2Br)=C1 (stereo not given) = 13.6
O=S(O)CCCCSSCC(O)C(O)CSSCCCCS(=O)O (stereo not given) = 57.5
COC(=O)C1c2cc3c(cc2C(OC2OC(C)C(OC)C(C)(OC)C2OC)CC1(C)O)C(=O)c1c(O)cc2c(c1C3=O)OC1OC2(C)C(O)C([N+](C)(C)[O-])C1O (stereo not given) = 74.8
Cc1ccc(S(=O)(=O)C23C(N=NC2(C)C)C3(C)C)cc1 (stereo not given) = -45.8
COc1cc2c(c3c1/c(=N/N(C)C)c1ccccc1n3C)C=CC(C)(C)O2 = -15.7

Where these numbers come from: PubChem BioAssay (NCI)
